The entries below are paired with their reported T/C.
tested on: P388 leukemia ip, CD2F1 mice, survival T/C; assay: NCI In Vivo Anticancer Drug Screen. Data for tumor model P388 Leukemia (intraperitoneal) in CD2F1 (CDF1) mice; details: endpoint: median survival time; dose: 240.0 mg/kg/injection; schedule: Q01DX005 (ip); vehicle: saline with Tween-80; higher = longer survival
Toxic doses and inconclusive results are not listed.

>>> df
                        compound          measured
0  Cc1c(-c2ccccc2)nc(N(C)C)oc1=O  100 % of control

Now look at this entry.
q: # get_value(readout='T/C', item= "CN(C)c1ccc(/C=N/NC(=O)CC2CCCCC2)cc1" )
a: 102 % of control
